This collection of values is drawn from the supplement of paper PMC7600603.

system: DLD1 NRF2-GOF; experiment: TC50 cytotoxicity; higher = less toxic; details: 72 h; CellTox Green cytotoxicity
Property: TC50 cytotoxicity

{"columns": ["Chemical Structure", "System Name", "Property", "Result"],
 "data": [
  ["COc1nc(N)nc2c1ncn2[C@@H]1O[C@H](CO)[C@@H](O)[C@@H]1O", "DLD1 NRF2-GOF", "TC50 cytotoxicity", "> 10000 nM"],
  ["CN1CCC(COc2cnc(-c3cccc(Cn4nc(-c5cccc(C#N)c5)ccc4=O)c3)nc2)CC1", "DLD1 NRF2-GOF", "TC50 cytotoxicity", "> 1000 nM"],
  ["COc1cc2nccc(Oc3ccc(NC(=O)NC4CC4)c(Cl)c3)c2cc1C(N)=O", "DLD1 NRF2-GOF", "TC50 cytotoxicity", "> 2500 nM"]
]}

====

tested on: DLD1 NRF2-GOF; experiment: TC50 cytotoxicity; higher = less toxic; conditions: 72 h; CellTox Green cytotoxicity

{"columns": ["Molecule", "TC50 cytotoxicity"],
 "data": [
  ["C[C@H]1C=C2C(=O)O[C@H]3CC[C@@H](C1)[C@@]23O [Galiellalactone]", "> 25 µM"],
  ["COc1cc2ncnc(Oc3cccc(NC(=O)Nc4cc(C(C)(C)C(F)(F)F)on4)c3)c2cc1OC", "> 10 µM"],
  ["CCCCC(=O)OCC(=O)[C@]1(O)Cc2c(O)c3c(c(O)c2[C@@H](O[C@H]2C[C@H](NC(=O)C(F)(F)F)[C@H](O)[C@H](C)O2)C1)C(=O)c1c(OC)cccc1C3=O [Valrubicin]", "> 5 µM"],
  ["CCn1c(=O)c(-c2ccc(Cl)cc2Cl)cc2cnc(Nc3ccc(N4CCNCC4)c(F)c3)nc21 [FRAX486]", "> 5 µM"],
  ["O[C@H]1CC[C@H](Nc2ncc3nc(Nc4c(F)cc(F)cc4F)n([C@H]4CCOC4)c3n2)CC1 [Tanzisertib]", "> 10 µM"],
  ["Cc1c(F)cc(C(=O)NC2CC2)cc1-c1ccc(C(=O)NCC(C)(C)C)cn1 [Losmapimod]", "> 10 µM"],
  ["Nc1ccccc1NC(=O)c1ccc(CNC(=O)OCc2cccnc2)cc1 [Entinostat]", "> 10 µM"],
  ["CNC(=O)[C@@H](NC(=O)[C@H](CC(C)C)[C@H](O)C(=O)NO)C(C)(C)C [Marimastat]", "> 10 µM"],
  ["O=C(Nc1cccc(Nc2ncc(Br)c(NCCc3cnc[nH]3)n2)c1)N1CCCC1 [BX-912]", "> 10 µM"],
  ["Cc1ccc(NC(=O)c2ccc(CN3CCN(C)CC3)cc2)cc1Nc1nccc(-c2cccnc2)n1 [Imatinib]", "> 10 µM"],
  ["CCOc1cc2ncc(C#N)c(Nc3ccc(OCc4ccccn4)c(Cl)c3)c2cc1NC(=O)/C=C/CN(C)C [Neratinib]", "> 1 µM"],
  ["CC(C)(C)c1cc(NC(=O)Nc2ccc(Oc3ccnc4[nH]c(=O)cnc34)cc2F)n(-c2ccccc2)n1", "> 25 µM"],
  ["C/C=C1\\NC(=O)[C@H]2CSSCC/C=C/[C@H](CC(=O)N[C@H](C(C)C)C(=O)N2)OC(=O)[C@H](C(C)C)NC1=O [Romidepsin]", "0.121 µM"],
  ["CC(=O)c1cc2c(o1)C(=O)c1ccccc1C2=O [Napabucasin]", "0.465 µM"],
  ["NC(=O)c1cccc2cn(-c3ccc(C4CCCNC4)cc3)nc12 (stereo not given) [Niraparib]", "> 10 µM"],
  ["C#Cc1cccc(Nc2ncnc3cc4c(cc23)OCCOCCOCCO4)c1 [Icotinib]", "> 10 µM"],
  ["O=C(CCNC(=O)c1ccc(OC(F)(F)F)cc1)N[C@@H]1CCCc2ccccc21 [ML390]", "> 50 µM"],
  ["O=c1[nH]c(=O)n([C@H]2C[C@H](O)[C@@H](CO)O2)cc1F [Floxuridine]", "> 10 µM"],
  ["CCCCCCCCc1ccc(CCC(N)(CO)CO)cc1 [Fingolimod]", "2.73 µM"],
  ["CC[C@@](C)(Nc1ccnc(-c2c[nH]c3ncccc23)n1)C(=O)NCC(F)(F)F [Decernotinib]", "> 10 µM"],
  ["CNC(=O)c1cc(Oc2ccc(NC(=O)Nc3ccc(Cl)c(C(F)(F)F)c3)c(F)c2)ccn1 [Regorafenib]", "> 10 µM"],
  ["CN(C)C(=O)c1cc2cnc(Nc3ccc(N4CCNCC4)cn3)nc2n1C1CCCC1 [Ribociclib]", "> 10 µM"],
  ["Cn1ncc(Cl)c1-c1cc(C(=O)N[C@H](CN)Cc2ccc(F)c(F)c2)oc1Cl [Uprosertib]", "> 10 µM"],
  ["CC(C)C[C@H](NC(=O)[C@H](Cc1ccccc1)NC(=O)c1cnccn1)B(O)O [Bortezomib]", "0.0117 µM"],
  ["CN(C(=O)c1ccc(F)cc1C(F)(F)F)C1CCN(c2nnc(-c3ccnn3C)c3ccccc23)CC1 [Taladegib]", "> 10 µM"],
  ["NS(=O)(=O)OC[C@@H]1C[C@@H](n2ccc3c(N[C@H]4CCc5ccccc54)ncnc32)C[C@@H]1O [Pevonedistat]", "> 10 µM"],
  ["CCn1c(C(=O)N(C2CC2)C2CC2)cc2c3c(ncn3C)c(Nc3cc(C)n(C)n3)nc21", "> 10 µM"],
  ["C[C@@H](C(=O)O)c1ccc(-c2ccccc2)c(F)c1 [Tarenflurbil]", "> 10 µM"],
  ["CCS(=O)(=O)Nc1ccc(Oc2ccc(F)cc2F)c(-c2cn(C)c(=O)c3[nH]ccc23)c1 [Mivebresib]", "> 10 µM"],
  ["Cn1cc(C[C@@H](N)C(=O)O)c2ccccc21 [1-methyl-D-tryptophan]", "> 5 µM"]
]}
